Test: ATG_VDRE_CIS: Attagene CIS-FACTORIAL HepG2 Assay for human Vitamin D Receptor Element (VDRE) (AID 2282968)
Settings: HepG2 VDRE cis-reporter transcription, actives raise or lower the signal
Activity calls are given as the source filed them. How the source made its calls: active means hit-call score of the fitted dose curve at least 0.9, where 1 is the maximum; inactive means score below 0.9.
measuredProperty: AC50

C=CC(Cl)CCl (centres undefined); inactive
O=C(NC(=O)c1c(F)cccc1F)Nc1cc(Cl)c(OC(F)(F)C(F)C(F)(F)F)cc1Cl (centres undefined); inactive
OC[P+](CO)(CO)CO; inactive
COCCl; inactive
COc1nn(C(=O)NS(=O)(=O)c2ccccc2OC(F)(F)F)c(=O)n1C; inactive

Record AC50 per entry; entries follow.
1. CCOCn1c(-c2ccc(Cl)cc2)c(C#N)c(Br)c1C(F)(F)F
2. CCOC(=O)Cc1ccccc1
3. CCOP(=O)(OCC)OC(=CCl)c1ccc(Cl)cc1Cl

["1.79 µM (active)", "inactive", "1.83 µM (active)"]

Record AC50 per entry; entries follow.
1. O=C(CBr)c1ccc(O)cc1
2. [Cl][Sn]([c]1ccccc1)([c]1ccccc1)[c]1ccccc1
3. O=C(Nc1ccc(Br)cc1)c1cc(Br)cc(Br)c1O
4. ClCCN1CCOCC1
5. O=NN1CCOCC1
6. CCOP(=S)(OCC)SCSc1cc(Cl)ccc1Cl

1. inactive
2. 0.24 µM (active)
3. 6.47 µM (active)
4. inactive
5. inactive
6. inactive
